Where do the numbers come from? From PubChem BioAssay (Tox21).

assay: qHTS assay for small molecule agonists of the antioxidant response element (ARE) signaling pathway (AID 743202); settings: HepG2 ARE-bla reporter, beta-lactamase FRET, 16 h; series mostly up to 73.3 µM
Records with an inconclusive call do not appear. Activity calls are given as the source filed them. Calls come from the whole dose curve; as a rule, active = well fitted activation curve with a large enough effect in the signal ratio in the repeat runs (not every such curve was filed as active); inconclusive = weak or mixed curves, or effect the other way; inactive = no such curve, though single readings can be large or run the other way; the % refers to the signal ratio.
Outcome codes: yes = active, no = inactive

COC(=O)c1cccc(C(=O)OC)c1 | no
O=C(O)CP(=O)(O)O | no
CC(C)(C)NCC(O)c1cc(O)cc(O)c1 (stereo not drawn) | no
C1COC(NC(C2CC2)C2CC2)=N1 | no
CC(C)(C)NCC(O)COc1ccccc1OCC1CCCO1 (stereo not drawn) | no
CCn1c2ccccc2c2cc(N)ccc21 | no
CCCOC(=O)c1cc(O)c(O)c(O)c1 | yes
C#CC(C)(CC)OC(=O)c1ccccc1C(=O)O (stereo not drawn) | no

###

assay: qHTS assay for small molecule activators of the heat shock response signaling pathway - cell viability counter screen (AID 743209); conditions: HSE-bla HeLa viability, CellTiter-Glo luminescence, 5 h; series mostly up to 62.6 µM; note: nearly all actives have a fitted effect of over 50% in size; note: potency is the fitted concentration of half-maximal effect
Results filed as inconclusive are left out. The source made the active and inactive calls. Calls follow the shape of the dose curve; as a rule, active = well fitted cell-killing curve with a large enough effect in the repeat runs; inconclusive = weak or mixed curves, or effect the other way; inactive = no such curve, though single readings can be large or run the other way.
recordedMetric: Potency

OCCOCCN1CCN(C(c2ccccc2)c2ccc(Cl)cc2)CC1 (stereo not drawn) | inactive
CC(C)(C)NCC(O)c1cc(O)cc(O)c1 (stereo not drawn) | inactive
CCC(C)(Oc1ccc(C2(c3ccc(OC(C)(CC)C(=O)O)cc3)CCCCC2)cc1)C(=O)O (stereo not drawn) | inactive
Cc1cccc([N+](=O)[O-])c1C(=O)O | inactive
COc1ccc(CCN(C)CCCC(C#N)(c2ccc(OC)c(OC)c2)C(C)C)cc1OC (stereo not drawn) | inactive
CC(=O)O[C@]1(C(C)=O)CC[C@H]2[C@@H]3C[C@H](C)C4=CC(=O)CC[C@]4(C)[C@H]3CC[C@@]21C | inactive
COc1cc(C(=S)N2CCOCC2)ccc1O | inactive
Nc1cc(Cl)c(-c2cc(Cl)c(N)cc2Cl)cc1Cl | 24.5 µM (active)
CCCCC/C=C/CC1CC(=O)OC1=O (stereo not drawn) | inactive
c1cnc2cc3c(cc2n1)C1CNCC3C1 | inactive
NC(=Nc1ccccc1)Nc1ccccc1 | inactive
CCn1c2ccccc2c2cc(N)ccc21 | inactive
CCCCCCC(O)CCCCCCCCCCC(=O)O (stereo not drawn) | inactive
O | inactive
CCC[C@H](N[C@@H](C)C(=O)N1[C@H](C(=O)O)C[C@@H]2CCCC[C@@H]21)C(=O)OCC | inactive
CCc1cc(C(C)(C)C)c(O)c(C(C)(C)C)c1 | inactive
CCOC(=O)C(C)C(C)=O (stereo not drawn) | inactive
O=C(OCc1ccccc1)c1ccc(O)cc1 | inactive
C=CS(=O)(=O)O | inactive
C/C=C/c1ccc(OCC)c(O)c1 | inactive
COC(=O)/C=C/c1ccccc1 | inactive
C=CC(=O)OCCCCCCOC(=O)C=C | 17.4 µM (active)
CCOc1ccccc1C(N)=O | inactive
Cc1occc(=O)c1OC(=O)C(C)C | inactive
O=C1OC2(c3ccc(O)cc3Oc3cc(O)ccc32)c2ccccc21 | inactive
CC(=O)CC(=O)Nc1ccc2[nH]c(=O)[nH]c2c1 | inactive
O=C1NCC2(CCN(CCc3ccccc3)CC2)O1 | inactive
Cc1cccc(O)c1C | inactive
